Taken from patent US20250179059A1.

tested on: human SKM-1 acute myeloid leukemia cells; assay: SKM-1 antiproliferation cell-based assay (ATPlite); conditions: Homo sapiens, SKM-1, 96 h, SKM-1 antiproliferation assay, 4 days, Table C2
parameter: GI50

Find the measured GI50 of C[C@@H]1CN(c2cc(-c3cc(F)cc(-c4ccc(-n5ccn(C)c5=O)c(Cl)c4)c3O)ccn2)CCO1 and report it. 30 to 300 nM

Please look at this molecule and report its GI50: CN1CCN(c2ccc(-c3cc(F)cc(-c4cc(N5CCNCC5)c5cc[nH]c5c4)c3O)cc2Cl)C1=O 0.3 to 30 nM

Indicate its recorded GI50; the molecule in question is CC(=O)Nc1ccc(-c2cccc(-c3cc(Cl)nc(N4CCNCC4)c3)c2O)cc1F 300 to 3000 nM

Answer with the recorded GI50 for the molecule listed here: Cn1ccn(-c2ccc(-c3cc(F)cc(-c4ccnc(N5CCC(C)(NC(=O)OC(C)(C)C)C5)c4)c3O)cc2Cl)c1=O (stereo not shown) 30 to 300 nM

Item Cn1ccn(-c2ccc(-c3cc(F)cc(-c4cncc(N5CC6CNC(C6)C5)c4)c3O)cc2Cl)c1=O (stereo not shown) : provide GI50 0.3 to 30 nM

Give the value of GI50 reported for the following: Cn1ccn(-c2ccc(-c3cc(F)cc(-c4cc(N5CC6CCC(C5)N6)c5cn[nH]c5c4)c3O)cc2Cl)c1=O 0.3 to 30 nM

Hello, please tell me recorded GI50 for this one: CC(C)Oc1cc(-c2cc(F)cc(-c3ccnc(N4CCNCC4)c3)c2O)cc(Cl)c1-n1ccn(C)c1=O 300 to 3000 nM

* * *

target: human BRD4 bromodomain II (Homo sapiens); construct: human BRD4 bromodomain II [based on Genbank NM_058243, residues 349-460]; host or cells: E. coli; assay: Bromodomain binding assay (AlphaScreen), BRD4 BDII; conditions: AlphaScreen assay, Table C2; read-out: BRD4 BDII IC50
parameter: IC50

Return value of IC50 for input CC(=O)Nc1c(F)cc(-c2cccc(-c3cc(N4CCNCC4)no3)c2O)cc1Cl [Example 126, 2,2,2-trifluoroacetate] , no commentary. 10 to 100 nM

Supply reported IC50 belonging to this molecule: CC(=O)Nc1ccc(-c2cccc(-c3cc(N4CCN(C(C)=O)CC4)no3)c2O)cc1 [Example 57] > 100 nM

Name the recorded IC50 of the molecule listed here: CC(=O)Nc1ccc(-c2cccc(-c3cnc4c(ccn4C)c3)c2O)cc1F [Example 125] > 100 nM

Given CN1CCCC12CCN(c1cncc(-c3cc(F)cc(-c4ccc(-n5ccn(C)c5=O)c(Cl)c4)c3O)c1)C2 (stereo not drawn) [Example 700] , respond with its IC50. 0.01 to 1 nM

Please look at this molecule and report its IC50: Cn1ccn(-c2ccc(-c3cc(F)cc(-c4cc(N5CC6CCC(C5)N6)c5cn[nH]c5c4)c3O)cc2Cl)c1=O [Example 573] 0.01 to 1 nM

Please report IC50 for the following molecule: CC(=O)Nc1ccc(-c2cccc(-c3cccc(F)c3)c2O)cc1F [Example 54] > 100 nM

Supply recorded IC50 for Cn1ccn(-c2ccc(-c3cc(F)cc(-c4ccnc(N5CCC(C)(N)CC5)c4)c3O)cc2Cl)c1=O [Example 778] here. 1 to 10 nM

Entry CC(=O)Nc1ccc(-c2cccc(-c3cc(N4CCN(C)CC4)no3)c2O)cc1F [Example 150] needs its IC50 filled in; supply it. 10 to 100 nM

Supply reported IC50 belonging to this molecule: Cn1ccn(-c2ccc(-c3cc(F)cc(-c4ccnc(N5CCN6C(=O)OC[C@@H]6C5)c4)c3O)cc2Cl)c1=O [Example 560] 1 to 10 nM

Fill in IC50 for record Cn1ccn(-c2ccc(-c3cc(F)cc(-c4ccnc(N5CC6NCCOC6C5)c4)c3O)cc2Cl)c1=O (stereo not drawn) [Example 648] 0.01 to 1 nM

Tell me its IC50 given CC(=O)Nc1ccc(-c2cccc(-c3ccc(Cl)cc3)c2O)cc1F [Example 81] as the entry. > 100 nM

Identify IC50 associated with the molecule O=C1CCCN1c1ccc(-c2cccc(-c3cc(N4CCNCC4)no3)c2O)cc1 [Example 43, 2,2,2-trifluoroacetate] 10 to 100 nM

Let me know recorded IC50 for CC(=O)Nc1ccc(-c2cccc(-c3cccc(N4CCC5(CCNC5)CC4)c3)c2O)cc1F [Example 192] , thanks. 10 to 100 nM

Provide one value: measured IC50 of Cn1ccn(-c2ccc(-c3cc(F)cc(-c4ccnc(N5CCC(C)(NS(C)(=O)=O)C5)c4)c3O)cc2Cl)c1=O (stereo not drawn) [Example 792] > 100 nM

Identify measured IC50 corresponding to Cc1cc(-c2cc(-c3cn[nH]c3)nc(N3CCNCC3)c2)c(O)c(-c2ccc(-n3ccn(C)c3=O)c(Cl)c2)c1 [Example 566] 0.01 to 1 nM

Note down IC50 recorded for CC(=O)Nc1c(F)cc(-c2cccc(-c3cc(N4CCNCC4)no3)c2O)cc1OC1CCC1 [Example 100] 1 to 10 nM

Give the value of IC50 reported for the following: O=C1CCCN1c1ccc(-c2cccc(-c3cc(N4CCNCC4)no3)c2O)cc1F [Example 113] 10 to 100 nM

Report measured IC50; entry is O=C(Nc1ccc(-c2cccc(-c3cc(N4CCNCC4)no3)c2O)cc1)C(F)F [Example 48, 2,2,2-trifluoroacetate] > 100 nM

Identify measured IC50 corresponding to Cc1ncc(-c2cc(F)cc(-c3ccc(-n4ccn(C)c4=O)c(Cl)c3)c2O)cc1N1CC(O)(CO)C1 [Example 839] 0.01 to 1 nM

Supply IC50 value. Item: Cn1cc(-c2cc(F)cc(-c3ccc(-n4ccn(C)c4=O)c(Cl)c3)c2O)cc(N2CCC(C)(N)C2)c1=O (stereo not drawn) [Example 723] 1 to 10 nM

Indicate its recorded IC50; the molecule in question is O=C1OCCN1c1ccc(-c2cccc(-c3cc(N4CCNCC4)no3)c2O)cc1 [Example 37, 2,2,2-trifluoroacetate] > 100 nM

Provide measured IC50 value, entry: CN1CCN(c2ccc(-c3cccc(-c4cc(C#N)cc(N5CCNCC5)c4)c3O)cc2Cl)C1=O [Example 331] 1 to 10 nM

Answer with reported IC50 of CN1CCN(c2ccc(-c3cc(C(C)(C)C)cc(-c4ccnc(N5CCNCC5)c4)c3O)cc2Cl)C1=O [Example 310] > 100 nM

Fill in IC50 for record CC(=O)Nc1ccc(-c2cccc(-c3cccc(OC4CCCC4)c3)c2O)cc1F [Example 115] > 100 nM

Supply IC50 value. Item: CC(=O)Nc1ccc(-c2cccc(-c3cccc(OC(C)C)c3)c2O)cc1F [Example 107] > 100 nM

# return recorded IC50 for entry Cc1cc(-c2ccnc(N3CCN[C@H](C)C3)c2)c(O)c(-c2ccc(-n3ccn(C)c3=O)c(F)c2)c1 [Example 546] 0.01 to 1 nM

Output measured IC50 for this item: Cn1ccn(-c2ccc(-c3cc(F)cc(-c4ccnc(N5CCC(N)(CO)C5)c4)c3O)cc2Cl)c1=O (stereo not drawn) [Example 750] 0.01 to 1 nM

State its IC50: CC(=O)Nc1ccc(-c2cc(F)cc(-c3ccnc(N4CC5(CNC5)C4)c3)c2O)cc1Cl [Example 298] 10 to 100 nM

Please list IC50 recorded for the molecule Cn1ccn(-c2ccc(-c3cc(F)cc(-c4ccnc(N5CCC(N)CC5)c4)c3O)cc2Cl)c1=O [Example 414] 0.01 to 1 nM

Return the recorded IC50 value; entry: Cn1ccn(-c2ccc(-c3cc(F)cc(-c4ccc(OC5CCNCC5)nc4)c3O)cc2Cl)c1=O [Example 445] 1 to 10 nM
